Subject of test: human LTA4 hydrolase (Homo sapiens)
Sequence (P09960 whole entry): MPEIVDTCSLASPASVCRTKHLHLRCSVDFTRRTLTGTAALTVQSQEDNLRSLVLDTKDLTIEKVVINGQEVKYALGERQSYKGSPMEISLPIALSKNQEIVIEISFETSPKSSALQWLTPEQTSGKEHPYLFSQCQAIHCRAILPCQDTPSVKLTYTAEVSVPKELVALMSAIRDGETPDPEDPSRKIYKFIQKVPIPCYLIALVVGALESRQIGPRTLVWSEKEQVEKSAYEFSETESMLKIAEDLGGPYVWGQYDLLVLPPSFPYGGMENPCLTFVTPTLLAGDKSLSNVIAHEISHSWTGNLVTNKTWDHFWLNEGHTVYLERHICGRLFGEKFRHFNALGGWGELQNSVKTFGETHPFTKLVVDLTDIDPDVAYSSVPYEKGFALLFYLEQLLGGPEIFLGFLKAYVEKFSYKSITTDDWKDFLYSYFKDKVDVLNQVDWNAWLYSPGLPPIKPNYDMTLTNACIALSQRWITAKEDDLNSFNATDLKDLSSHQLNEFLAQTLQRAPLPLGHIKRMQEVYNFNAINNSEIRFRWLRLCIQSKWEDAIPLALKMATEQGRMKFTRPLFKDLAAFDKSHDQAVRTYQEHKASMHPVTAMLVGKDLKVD
Test: LTA4H Enzyme assay (cleavage of Arg-AMC, fluorescence)
Format: biochemical
Experimental parameters: LTA4H Enzyme 1 nM, Arg-AMC substrate 50 μM, room temperature 1 h, fluorescence; read-out: IC50 values of LTA4H Enzyme assay
Procedure: The compounds of the invention are assessed for the ability to interact with human LTA4 hydrolase in an enzymatic assay that measures the ability of the enzyme to cleave the peptide bond of arginyl-aminomethylcoumarin (Arg-AMC). […] The formation of product is assessed by measuring the fluorescence of aminomethylcoumarin product (excitation wavelength 380 nm/emission wavelength 460 nm).
Endpoint label: pIC50
Quick note: pIC50 values are minus log10 of concentrations in mol/L.

Q: Return pIC50 for the following molecule: CN(Cc1ccc([C@H]2COc3ccccc3O2)cc1)C1CCN(S(C)(=O)=O)CC1
Ans: 9.44

---
Q: Respond only with pIC50 recorded for O=C(O)CCC1CCN(Cc2ccc([C@H]3COc4ccccc4O3)cc2)CC1
Ans: 9.33

Q: Recall and state the measured pIC50 for CN(Cc1ccc([C@H]2COc3cccnc3O2)cc1)C1CCCC1 .
Ans: 9.77

* * *

Tested on: synthesis of LTB4 in human whole blood
Test: human whole blood (HWB) assay, LTB4 production inhibition after calcimycin stimulation
Format: cell-based
Experimental parameters: heparinized human whole blood, calcimycin 20 μM, plasma LTB4 by HTRF
Endpoint label: IC50

Q: Indicate the recorded IC50 value for this molecule: NC(=O)N1CC2CN(Cc3ccc([C@H]4COc5cccnc5O4)cc3)CC2C1 (stereo partly shown)
Ans: 0.071 µM

***
Q: Identify IC50 associated with the molecule O=C(O)c1ccc(C2CN(Cc3ccc([C@H]4COc5ccccc5O4)cc3)C2)cc1
Ans: 0.084 µM

Q: Give reported IC50 value for c1cnc2c(c1)OC[C@H](c1ccc(CN3CCn4cnnc4C3)cc1)O2
Ans: 0.159 µM

Q: Give the reported IC50 for this molecule. O=C(CO)N1CCN(Cc2ccc([C@H]3COc4cccnc4O3)cc2)CC1
Ans: 0.11 µM

Q: Return IC50 (reported value) for this molecule: O=C(O)C[C@@H]1CCCN(Cc2ccc([C@H]3COc4ccccc4O3)cc2)C1
Ans: 0.151 µM

Q: Given NC(=O)COC1CCN(Cc2ccc([C@H]3COc4cccnc4O3)cc2)CC1 , respond with its IC50.
Ans: 0.1 µM

Q: Note IC50 for the molecule shown: CN(Cc1ccc([C@H]2COc3ccccc3O2)cc1)C(C)(C)C
Ans: 0.081 µM
